Experiment: yeast display, Sf9 membrane polyspecificity reagent, FACS + sequencing; frameworks hold sequencing errors
EXPERIMENTAL_READOUT: polyreactivity (PSR sort gate)

Example cases with answers are listed next.
QVQLVESGGGLVQAGGSLRLSCAASGRIFKTYAMGWYRQAPGKERELVAAISIRGGSTYYAESVKGRFTISRDNAKNTVYLQMNSLKPEDTAVYYCNALYGRQIVDYDYWGQGTQVTVSS    low polyreactivity
QVQLVESGGGLVQAGGSHRLSCAASGRTFGHNAMGWYRQAPGKEMEFVASIRSGGITDYADSVKGRFTISRDNAKNTVYLQMNSLKPEDTAVYYCAADVLDWYDLLRDDYWGQGTQVTVSS    low polyreactivity
QVQLVESGGGLVQAGGSLRLSCAASGRTLSYYAMGWYRQAPGKEREFVAAINWSGGSTYYADSVKGRFTISRDNAKNTVYLQMNSLKPEDTAVYYCAAYRPYSSSEGDYWGQGTQVTVSS    high polyreactivity
QVQLVESGGGLVQAGGSLRLSCAASGFTFADNAMGGYREAPGKERQFVASITYSTGSTYADSVKGRFTISRDNAKNTVYLQMHSLTPEDTAVYYCAVDNISNWAVENDYWGQGTQVTVSS    low polyreactivity
QVKLVESGGGIVQAGGSLRLTCAASGSTVRLYAMGCYRQAPGKERELVAAISTRGSSTYYADSVKGRFTISRDNAKNTVYLQMNSLKPEDTAVFYCAADAYFIYSRYWYDYWGQGTQVTVSS    high polyreactivity
QVQLVESGGGLVQAGGSLRLSCAASGSTFVQYTMGWYRQAPGKERELVAVITGGDGSTYYADSVKGRFTISRDNAKNTVYLLMNSLKPEDTAVYYCNADVYDYLRGGYEFDYWGQGTQVTVSS    low polyreactivity

Look at this sequence and give its reported polyreactivity (PSR sort gate). "QVHLVESGGGLVQAGGSLRLSCAASGSIFGYNAMGWYRQAPGKERELVAAISLTTGSTYYADSVKGRFTISRDNAKNTVYLQMNSLKPEDTAVYYCAIRGFYRGYGQAYGYWGQGTLVTVSS" high polyreactivity

Look at this sequence and give its reported polyreactivity (PSR sort gate). "QVQLVESGGGLVQAGGSLRLSCAASGNTFYGYAMGWYRQAPGKERELVASITLSGDSTYYADSVKGRFTISRDNAKNTVYLQMNSLKPADTAVYYCAGVYTYPLGYYHYTYDYWGQGTQVTVSS" low polyreactivity

Look at this sequence and give its reported polyreactivity (PSR sort gate). "QVQLVESGGGLVQAGGSLRLSCAASGSIFNDNVMGWYRPAPGKERELVAGISRSGTRTYYADSVKGRFTISRDNAKNTVYLQMNSLKPEDNAVYYCAAAYGQARRYNGSQYGSWGQGTQVTVSS" high polyreactivity

Look at this sequence and give its reported polyreactivity (PSR sort gate). "QVQLVESGGGFVQAGGSLGLSCAASGSTFQFYALGWYRQAPGKERELVAVITSGDDTNYADSVKGRFTISRDNATYTVYLQMNSLKPEDTAVYYCAVEYILVYTRVRSYWFDYWGQGTQVTVSS" low polyreactivity

Look at this sequence and give its reported polyreactivity (PSR sort gate). "QVQLVESGGGLVQAGGSLRLSCAASGSIFYRYAMGWYRQAPGKERELVAAISSNGVSTYYADSVKGRFTISRDNAKNTVYLQMNSLKPEDTAVYCCARDVYASPRLYTSRYNYWGQGTQVTVSS" low polyreactivity

Look at this sequence and give its reported polyreactivity (PSR sort gate). "QVQLVESGGGLVQAGGSLRLSCAASGRIFRQYTMGWNRQAPGKERELVAAITGTRGSTYYADSVKGRFTISRDNAKNTVYLQMNSLKPVDTAVYSCDADYSARYGYWGQGTQVTVSS" high polyreactivity

Look at this sequence and give its reported polyreactivity (PSR sort gate). "QVQLVDSGGGLVQEGGSLRLSCAASGNIFQTYDMGWYRQAHGKEREFVATITSSCARTYYADSVKGRFTISRDNAKNTVYVQMNCLKPEDTAVDYCNRVWSYANGYWGHGTQVTVSS" high polyreactivity

Look at this sequence and give its reported polyreactivity (PSR sort gate). "QVQLVESVGGLVQAGGSLRLSCAASGRIFVNAMGWYRPAPGKESEVVAAINTRGGSTYYADSVKGRFTISRDNAKNTVYLQLNSLKPEDTAVYYCAARFYTSSRYNYWGQGTQGTVSS" high polyreactivity

Look at this sequence and give its reported polyreactivity (PSR sort gate). "QVQLVESGGGLVQAGGSLRLSCAASGRIYGYAMGWYRQAPGKESELVAVITTSGGRTYYADSVKGRFTISRDNAKNTVYLQMNSLKPEDNAVYYCNVGKPSRRSYGTLIPAALYDSWGQGTQVTVSS" high polyreactivity

Look at this sequence and give its reported polyreactivity (PSR sort gate). "QVQLVESGGGLVQAGGSLRLSCAASGSIFWYNAMAWYRQAPGKERELVAAITGTGDRTYYADSVKGRFTISRDNAKNSVYLQMNSLKPEDSAVYYCAAAYGAYYPWGYDYWGQGTQVTVSS" low polyreactivity

Look at this sequence and give its reported polyreactivity (PSR sort gate). "QEQLQGSGGGLAQAGDSLRLSCAASGTIFSEYNNGLVSPGAGQRTRTCCRYWCWGNTYYADSAKGRFTTIRDNAKNTVYLQKNSLKPEDTAVYYCAFNRPYPSRHIYRGQGTQVTVSS" high polyreactivity

Look at this sequence and give its reported polyreactivity (PSR sort gate). "QVQLVESGGGLVQAGGSLRLSCAASGRILYAYAMGWYRQAPGKERELVAAITWGGGNTYYADSVKGRFTISRDNAKNTVYLQMNSLKPEDTAVYYCAADASTVYSTVPEYDFWGQGTQVTVSS" low polyreactivity

Look at this sequence and give its reported polyreactivity (PSR sort gate). "QVQLVESGGGLVQAGGSLRLSCAASGFTFYYYAMGWYRQAPGKERELVAAITSSGDSTFYADSVKGRFTISRDNAKNTVSLQMNSLKPEDTAVYYCAADRFQGRDDYWGQGTQGTVSS" high polyreactivity

Look at this sequence and give its reported polyreactivity (PSR sort gate). "QVQLVESGGGLVHAGGSLRLSCAASGRIFVRYAMGWYRQAPGKERELVAAINWRGSSTYYADSVKGRFTISRDNAKNTVYLQMNSLKPEDTAVYYCNTAQRYRVYRYDYWGQGTQVTVSS" high polyreactivity

Look at this sequence and give its reported polyreactivity (PSR sort gate). "QVQLVESGGGLVQAGGSLRLSCAASGSTFKRYAMGWYRQAHGKERELVAAISRRGGSTYYADSVKGRFTISRDNAKNTVYLQMNSLKPEDTAVYYCAARGTGNIYDYWGQGTQVTVSS" high polyreactivity
